Origin of the recorded values: patent US5229381A

System tested: human polymorphonuclear leukocyte elastase (Homo sapiens)
Construct: Crude extract of human polymorphonuclear leukocytes (PMN) containing elastase activity; endogenous in cells; host or cells: human polymorphonuclear leukocytes (crude extract)
Sequence (P08246 30-247 limits assumed): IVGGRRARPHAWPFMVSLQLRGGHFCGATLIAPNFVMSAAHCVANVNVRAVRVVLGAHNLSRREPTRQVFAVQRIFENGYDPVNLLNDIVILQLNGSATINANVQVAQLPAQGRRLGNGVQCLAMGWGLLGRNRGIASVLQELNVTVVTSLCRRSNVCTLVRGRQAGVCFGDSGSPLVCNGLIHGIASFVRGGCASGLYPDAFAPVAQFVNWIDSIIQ
Procedure text: Inhibition of human polymorphonuclear leukocyte (granulocyte) elastase via hydrolysis of Boc-AAPAN or Boc-AAPVN
Type: biochemical
Measurement parameters: Table I; read-out: Ki, concentration of the inhibitor giving 50% of the control enzyme activity
Would you kindly list Ki for each of these molecules?

Ki recorded for this molecule, CC[C@H]1C(=O)N(C(C)=O)[C@@H]1Oc1ccc(C(=O)O)cc1 (relative stereo) , is 3.4 µM

Ki reading for CC[C@H]1C(=O)N(C(C)=O)[C@@H]1OC(=O)c1ccccc1 (relative stereo) [Table I: H; C2 H5 (trans); OCOPh; COCH3] : 0.19 µM

Summary for this molecule, CC[C@H]1C(=O)N(C(C)=O)[C@@H]1Oc1ccccc1 (relative stereo) [Table I: H; C2 H5 (trans); OPh; COCH3] : Ki is 4.3 µM

Lab book: Ki of CC[C@H]1C(=O)N(C(=O)NC)[C@@H]1Oc1ccc(C(=O)O)cc1 (relative stereo) noted as 16.5 µM

Short answer for CC[C@H]1C(=O)N(S(=O)(=O)c2ccc(C)cc2)[C@H]1C(=O)N1CCCC1 (relative stereo) : Ki was 27.7 µM

Reported Ki for CCC1C(=O)N(C(C)=O)C1OC(C)=O (centres unmarked) was 0.36 µM

For this molecule ( CCC1C(=O)N(C(=O)CCC(=O)O)C1OC(C)=O (centres unmarked) ), measured Ki is 1.43 µM

Summary for this molecule, CCO[C@@H]1[C@@H](CC)C(=O)N1C(C)=O (relative stereo) [Table I: H; C2 H5 (trans); OC2 H5; COCH3] : Ki is 11.9 µM
